Molecular target: Human recombinant collagenase-3 (Homo sapiens, UniProt P45452)
Experiment: Inhibition of human collagenase-3 (recombinant collagenase-3 assay)
Format: biochemical
Conditions: human recombinant enzyme, fluorogenic peptide substrate; read-out: Collagenase-3 IC50
Method: Inhibition of Human Collagenase-3 (Recombinant Collagenase-3 Assay) This assay is used in the invention to measure the potency (IC50s) of compounds for collagenase-3. […] Fluorescence readings (360 nm excitation; 450 nm emission) are taken at time 0 and about every 5 minutes for about 1 hour. Positive controls and negative controls are set up in triplicate as outlined in the collagenase-1 assay. IC50's are determined as per inhibition of human collagenase (collagenase-1).
observed property: pIC50
Convention used: pIC50 is expressed as -log10 of the molar concentration.

GET /values?readout=pIC50&item= CNC(=O)[C@H](Cc1ccc(OC)cc1)NC(=O)[C@@H](CC(=O)NO)CC(C)C [reference compound]
9.00

###

Please respond with reported IC50 for every item in the list.
Target: TACE (Homo sapiens)
Construct: Human mononuclear cells are isolated from anti-coagulated human blood; endogenous in cells
Assay: Inhibition of soluble TNF-α production (TACE whole blood assay)
Settings: Table 2, read-out: TACE (IC50 class)

GET /values?readout=IC50&item= C[C@@]1(O)CCCN(S(=O)(=O)c2ccc(OCc3ccc(F)cc3Cl)cc2)[C@H]1C(=O)NO
10 to 20 µM

Also, Cc1c(F)cccc1COc1ccc(S(=O)(=O)N2C[C@H](O)CC(C)(C)[C@@H]2C(=O)NO)cc1 please.
< 10 µM

Also, Cc1ccccc1COc1ccc(S(=O)(=O)N2CCN(C(=O)CN)[C@@H](C)[C@@H]2C(=O)NO)cc1 please.
< 10 µM

Also, Cc1ccc(Cl)cc1COc1ccc(S(=O)(=O)N2C[C@H](O)CC(C)(C)[C@@H]2C(=O)NO)cc1 please.
10 to 20 µM

Also, CC1(C)C[C@@H](O)CN(S(=O)(=O)c2ccc(OCc3ccccc3Br)cc2)[C@H]1C(=O)NO please.
< 10 µM

Also, C[C@@]1(O)CCCN(S(=O)(=O)c2ccc(OCc3ccc(F)cc3F)cc2)[C@H]1C(=O)NO please.
10 to 20 µM

Also, C[C@@]1(O)CCCN(S(=O)(=O)c2ccc(OCc3ccc(Cl)cc3Cl)cc2)[C@H]1C(=O)NO please.
10 to 20 µM

Also, Cc1ccc(F)cc1COc1ccc(S(=O)(=O)N2CCC[C@@](C)(O)[C@@H]2C(=O)NO)cc1 please.
< 10 µM

###

Please respond with reported pIC50 for every item in the list.
Molecular target: TACE (Homo sapiens, UniProt P78536)
Construct: Human mononuclear cells are isolated from anti-coagulated human blood; endogenous in cells
Sequence (P78536 215-824): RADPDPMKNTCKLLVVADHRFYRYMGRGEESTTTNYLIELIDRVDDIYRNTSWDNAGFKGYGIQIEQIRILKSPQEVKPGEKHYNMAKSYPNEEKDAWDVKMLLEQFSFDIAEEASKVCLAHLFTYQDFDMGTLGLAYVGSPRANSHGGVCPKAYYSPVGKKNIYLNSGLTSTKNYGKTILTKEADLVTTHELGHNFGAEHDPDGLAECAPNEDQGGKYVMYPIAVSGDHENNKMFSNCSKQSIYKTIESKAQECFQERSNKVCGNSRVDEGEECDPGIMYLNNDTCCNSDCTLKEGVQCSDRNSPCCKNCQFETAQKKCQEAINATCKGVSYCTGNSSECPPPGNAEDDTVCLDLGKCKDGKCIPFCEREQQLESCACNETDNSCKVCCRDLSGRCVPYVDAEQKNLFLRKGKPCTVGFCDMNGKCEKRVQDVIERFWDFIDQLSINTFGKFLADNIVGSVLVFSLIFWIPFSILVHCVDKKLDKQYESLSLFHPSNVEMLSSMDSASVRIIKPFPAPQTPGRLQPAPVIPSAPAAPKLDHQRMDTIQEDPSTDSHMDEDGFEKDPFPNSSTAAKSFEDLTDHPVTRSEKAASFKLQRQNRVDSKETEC
Test: Inhibition of soluble TNF-α production (TACE whole blood assay)
Conditions: Table 2, read-out: TACE (IC50 class)
pIC50: −log10 of the molar value.

GET /values?readout=pIC50&item= CC1(C)C[C@@H](O)CN(S(=O)(=O)c2ccc(OCc3ccc(F)cc3Cl)cc2)[C@H]1C(=O)NO
4.70 to 5.00

Also, CCc1ccccc1COc1ccc(S(=O)(=O)N2CCN(C(=O)NC)[C@@H](C)[C@@H]2C(=O)NO)cc1 please.
> 5.00

Also, CNC(=O)N1CCN(S(=O)(=O)c2ccc(OCc3ccc(F)cc3F)cc2)[C@@H](C(=O)NO)[C@@H]1C please.
4.70 to 5.00

Also, CC1(C)C[C@@H](O)CN(S(=O)(=O)c2ccc(OCc3cc(Cl)ccc3F)cc2)[C@H]1C(=O)NO please.
4.70 to 5.00

Also, CC1(C)C[C@@H](O)CN(S(=O)(=O)c2ccc(OCc3ccc(F)cc3)cc2)[C@H]1C(=O)NO please.
4.70 to 5.00

Also, Cc1c(F)cccc1COc1ccc(S(=O)(=O)N2CCC[C@@](C)(O)[C@@H]2C(=O)NO)cc1 please.
> 5.00

Also, Cc1cc(F)ccc1COc1ccc(S(=O)(=O)N2CCC[C@@](C)(O)[C@@H]2C(=O)NO)cc1 please.
> 5.00

Also, Cc1cc(F)ccc1COc1ccc(S(=O)(=O)N2C[C@H](O)CC(C)(C)[C@@H]2C(=O)NO)cc1 please.
> 5.00

Also, C[C@@]1(O)CCCN(S(=O)(=O)c2ccc(OCc3ccccc3Cl)cc2)[C@H]1C(=O)NO please.
> 5.00

Also, C[C@@]1(O)CCCN(S(=O)(=O)c2ccc(OCc3ccc(Cl)cc3F)cc2)[C@H]1C(=O)NO please.
< 4.40

Also, Cc1cc(F)ccc1COc1ccc(S(=O)(=O)N2CC(=O)N[C@@H](C)[C@@H]2C(=O)NO)cc1 please.
> 5.00

Also, Cc1ccccc1COc1ccc(S(=O)(=O)N2CCC[C@](C)(O)[C@@H]2C(=O)NO)cc1 please.
> 5.00

Also, CC1(C)C[C@@H](O)CN(S(=O)(=O)c2ccc(OCc3ccc(Cl)cc3Cl)cc2)[C@H]1C(=O)NO please.
4.40 to 4.70

Also, Cc1ccccc1COc1ccc(S(=O)(=O)N2CCC[C@@](C)(O)C2C(=O)NO)cc1 (some centres unmarked) please.
> 5.00

Also, Cc1ccc(F)cc1COc1ccc(S(=O)(=O)N2CC(=O)N[C@@H](C)[C@@H]2C(=O)NO)cc1 please.
> 5.00

Also, CNC(=O)N1CCN(S(=O)(=O)c2ccc(OCc3cc(F)ccc3C)cc2)[C@@H](C(=O)NO)[C@@H]1C please.
> 5.00

Also, C[C@@]1(O)CCCN(S(=O)(=O)c2ccc(OCc3ccccc3F)cc2)[C@H]1C(=O)NO please.
4.40 to 4.70
